# target: T1, GRIP1_3, Q9Y3R0
# T1 sequence (Q9Y3R0 247-346, limits assumed, looked up): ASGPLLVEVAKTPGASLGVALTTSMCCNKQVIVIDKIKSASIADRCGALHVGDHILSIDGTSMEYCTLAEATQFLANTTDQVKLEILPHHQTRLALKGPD
# procedure_details: holdup assay
# Design: key: below the threshold = too weak to quantify, mostly under pKd 3.1 to 4
# assay_setup: plain residues with an end cap or a label only (N-terminal biotin on a linker: ado-ado)
outcome_measure: pKd

[
  {
    "binder": "WAKEKQHTRL [SLC17A1, Q14916]",
    "result": "below the threshold"
  },
  {
    "binder": "EPAKETTTNV [SLC2A3, P11169]",
    "result": "below the threshold"
  },
  {
    "binder": "LLQEEWETVM [PTH1R, Q03431]",
    "result": "below the threshold"
  },
  {
    "binder": "HDDYFYHDEL [RCN2, Q14257]",
    "result": "below the threshold"
  },
  {
    "binder": "IQISELETNV [SLC1A7, O00341]",
    "result": "below the threshold"
  }
]

q: Entry under review: PLATCDETSI [SEMA4F, O95754] . Reported pKd?
a: below the threshold

q: Entry under review: PALKNGQYWV [CSPG4, Q6UVK1] . Reported pKd?
a: below the threshold
